Test system: human ileum monolayer culture
Test: Sustained inhibition of apical acid secretion in human organoid monolayer cell cultures (ileum)
Type: cell-based
Conditions: Homo sapiens, 48 h; 1 μM apical, dosed day 6, apical media pH day 8, vs DMSO
Task for the reader: assign each of the following compounds its reported inhibition at 1 µM.

Give inhibition at 1 µM for each of the items listed below.
1. Cc1cc(Cl)cc2c1C[C@H](N1CCC[C@@H](N(C)C)C1)[C@H]2Oc1ccc(S(=O)(=O)NCCOCCOCCNC(=O)NCCCCNC(=O)NCCOCCOCCNS(=O)(=O)c2ccc(O[C@H]3c4cc(Cl)cc(C)c4C[C@@H]3N3CCC[C@@H](N(C)C)C3)cc2)cc1 [Example 28]
2. Cc1cc(S(=O)(=O)NCCOCCOCCNC(=O)NCCCCNC(=O)NCCOCCOCCNS(=O)(=O)c2ccc(O[C@H]3c4cc(Cl)cc(C)c4C[C@@H]3N(C)C)c(C)c2)ccc1O[C@H]1c2cc(Cl)cc(C)c2C[C@@H]1N(C)C [Example 17]
3. Cc1cc(Cl)cc2c1C[C@H](N1CCNCC1)[C@H]2Oc1ccc(S(=O)(=O)NCCOCCOCCNC(=O)NCCCCNC(=O)NCCOCCOCCNS(=O)(=O)c2ccc(O[C@H]3c4cc(Cl)cc(C)c4C[C@@H]3N3CCNCC3)c(F)c2)cc1F [Example 36]
4. O=C(NCCCCNC(=O)NCCOCCN1CC[C@@H](NS(=O)(=O)c2ccc(O[C@H]3c4cc(Cl)cc(Cl)c4C[C@@H]3N3CCNCC3)c(F)c2)C1)NCCOCCN1CC[C@@H](NS(=O)(=O)c2ccc(O[C@H]3c4cc(Cl)cc(Cl)c4C[C@@H]3N3CCNCC3)c(F)c2)C1 [Example 105]

Completion:
1: 50 to 70%; 2: 50 to 70%; 3: > 70%; 4: > 70%

---

Target: NHE3 (Homo sapiens, UniProt P48764)
Construct: expressed in transfected cells
Test: Cell-based assay of NHE-3 activity (pre-incubation inhibition), human
Conditions: human Preincubation
value.type: % inhibition

Sample records with % inhibition:
# chemical.smiles, value.type, reported.value
measured = [
    ("Cc1cc(S(=O)(=O)N2CC[C@@H](COc3ccnc(CNC(=O)NCCCCNC(=O)NCc4cc(OC[C@@H]5CCN(S(=O)(=O)c6ccc(O[C@H]7c8cc(Cl)cc(Cl)c8C[C@@H]7N(C)C)c(C)c6)C5)ccn4)c3)C2)ccc1O[C@H]1c2cc(Cl)cc(Cl)c2C[C@@H]1N(C)C", "% inhibition", "C (>70%)"),
    ("N[C@@H]1CCCN([C@H]2Cc3c(Cl)cc(Cl)cc3[C@@H]2Oc2ccc(S(=O)(=O)NCCOCCOCCNC(=O)NCCCCNC(=O)NCCOCCOCCNS(=O)(=O)c3ccc(O[C@H]4c5cc(Cl)cc(Cl)c5C[C@@H]4N4CCC[C@@H](N)C4)cc3Cl)c(Cl)c2)C1", "% inhibition", "C (>70%)"),
    ("C[C@@H]1CN([C@H]2Cc3c(C#N)cc(Cl)cc3[C@@H]2Oc2ccc(S(=O)(=O)N[C@@H]3CCN(CCOCCNC(=O)NCCCCNC(=O)NCCOCCN4CC[C@@H](NS(=O)(=O)c5ccc(O[C@H]6c7cc(Cl)cc(C#N)c7C[C@@H]6N6C[C@@H](C)N[C@@H](C)C6)cc5)C4)C3)cc2)C[C@H](C)N1", "% inhibition", "C (>70%)"),
    ("N[C@@H]1CCCN([C@H]2Cc3c(Cl)cc(Cl)cc3[C@@H]2Oc2c(F)cc(S(=O)(=O)NCCOCCOCCNC(=O)NCCCCNC(=O)NCCOCCOCCNS(=O)(=O)c3cc(F)c(O[C@H]4c5cc(Cl)cc(Cl)c5C[C@@H]4N4CCC[C@@H](N)C4)c(F)c3)cc2F)C1", "% inhibition", "C (>70%)"),
    ("N#Cc1cc(Cl)cc2c1C[C@H](N1CCNCC1)[C@H]2Oc1ccc(S(=O)(=O)N[C@@H]2CCN(CCOCCNC(=O)NCCCCNC(=O)NCCOCCN3CC[C@@H](NS(=O)(=O)c4ccc(O[C@H]5c6cc(Cl)cc(C#N)c6C[C@@H]5N5CCNCC5)cc4)C3)C2)cc1", "% inhibition", "C (>70%)"),
]

Kindly review the next compound as well.
Prompt: // query % inhibition value for entry O=C(NCCCCNC(=O)NCCOCCOCCNS(=O)(=O)c1ccc(O[C@H]2c3cc(Cl)cc(Cl)c3C[C@@H]2N2C3CCCC2CC3)cc1)NCCOCCOCCNS(=O)(=O)c1ccc(O[C@H]2c3cc(Cl)cc(Cl)c3C[C@@H]2N2C3CCCC2CC3)cc1
Completion: C (>70%)

---

Target: NHE3 (Homo sapiens)
Construct: expressed in transfected cells
Sequence (P48764 26-834): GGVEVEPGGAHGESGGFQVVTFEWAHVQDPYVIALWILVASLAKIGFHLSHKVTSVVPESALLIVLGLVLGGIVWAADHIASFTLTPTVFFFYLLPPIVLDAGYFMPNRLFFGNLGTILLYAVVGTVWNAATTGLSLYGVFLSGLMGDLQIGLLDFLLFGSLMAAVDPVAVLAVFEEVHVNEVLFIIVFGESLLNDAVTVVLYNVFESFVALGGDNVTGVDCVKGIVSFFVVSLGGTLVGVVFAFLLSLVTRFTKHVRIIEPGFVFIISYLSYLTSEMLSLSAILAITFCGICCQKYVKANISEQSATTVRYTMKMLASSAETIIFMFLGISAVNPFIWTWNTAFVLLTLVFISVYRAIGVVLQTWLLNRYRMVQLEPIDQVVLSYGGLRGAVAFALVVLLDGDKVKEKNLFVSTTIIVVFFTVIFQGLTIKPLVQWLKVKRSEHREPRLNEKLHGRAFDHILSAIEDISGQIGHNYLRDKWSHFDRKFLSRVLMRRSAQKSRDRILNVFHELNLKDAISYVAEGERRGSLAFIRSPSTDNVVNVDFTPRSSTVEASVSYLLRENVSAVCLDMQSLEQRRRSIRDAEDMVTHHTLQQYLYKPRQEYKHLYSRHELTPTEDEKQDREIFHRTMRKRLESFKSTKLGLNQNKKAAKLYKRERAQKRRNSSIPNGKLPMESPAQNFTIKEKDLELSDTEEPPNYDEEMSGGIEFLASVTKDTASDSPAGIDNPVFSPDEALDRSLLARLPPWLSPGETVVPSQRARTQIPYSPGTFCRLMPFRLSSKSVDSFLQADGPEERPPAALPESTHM
Sequence (Q99653 2-195 partner limits assumed): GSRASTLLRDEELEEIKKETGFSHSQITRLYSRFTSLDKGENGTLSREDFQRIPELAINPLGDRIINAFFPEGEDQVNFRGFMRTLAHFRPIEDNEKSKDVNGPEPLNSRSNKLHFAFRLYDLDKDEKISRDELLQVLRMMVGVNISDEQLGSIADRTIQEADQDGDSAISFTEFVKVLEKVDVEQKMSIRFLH
Assay: Cell-based assay of NHE-3 activity (pre-incubation inhibition), human
Conditions: human Preincubation
Counter-ions that a name gives are not always drawn.
value.type: % inhibition

Known % inhibition results, listed for orientation:
# compound, % inhibition
records = [
    ("Cc1cc(Cl)cc2c1C[C@H](N(C)C)[C@H]2Oc1ccc(S(=O)(=O)NCCOCCOCCNC(=O)NCCCCNC(=O)NCCOCCOCCNS(=O)(=O)c2ccc(O[C@H]3c4cc(Cl)cc(C)c4C[C@@H]3N(C)C)cc2)cc1", "C (>70%)"),
    ("Cc1cc(S(=O)(=O)N[C@@H]2CCN(CCOCCNC(=O)NCCCCNC(=O)NCCOCCN3CC[C@@H](NS(=O)(=O)c4ccc(O[C@H]5c6cc(Cl)cc(C#N)c6C[C@@H]5N(C)C)c(C)c4)C3)C2)ccc1O[C@H]1c2cc(Cl)cc(C#N)c2C[C@@H]1N(C)C", "C (>70%)"),
    ("C[C@@H](COCCOCCNC(=O)NCCCCNC(=O)NCCOCCOC[C@H](C)NS(=O)(=O)c1ccc(O[C@H]2c3cc(Cl)cc(Cl)c3C[C@@H]2N2CCC[C@@H](N)C2)cc1)NS(=O)(=O)c1ccc(O[C@H]2c3cc(Cl)cc(Cl)c3C[C@@H]2N2CCC[C@@H](N)C2)cc1 [Example 96, hydrochloride]", "C (>70%)"),
    ("CN1CCN([C@H]2Cc3c(Cl)cc(Cl)cc3[C@@H]2Oc2ccc(S(=O)(=O)NCCOCCOCCNC(=O)NCCCCNC(=O)NCCOCCOCCNS(=O)(=O)c3ccc(O[C@H]4c5cc(Cl)cc(Cl)c5C[C@@H]4N4CCN(C)CC4)cc3)cc2)CC1", "C (>70%)"),
    ("Cc1cc(O[C@H]2c3cc(Cl)cc(Cl)c3C[C@@H]2N2CCC[C@@H](N)C2)ccc1S(=O)(=O)NCCOCCOCCNC(=O)NCCCCNC(=O)NCCOCCOCCNS(=O)(=O)c1ccc(O[C@H]2c3cc(Cl)cc(Cl)c3C[C@@H]2N2CCC[C@@H](N)C2)cc1C", "C (>70%)"),
]

Working through the 3 compounds below one at a time, give % inhibition for each.
1. CN1CCCN([C@H]2Cc3c(C#N)cc(Cl)cc3[C@@H]2Oc2ccc(S(=O)(=O)N[C@H]3CCN(CCOCCNC(=O)NCCCCNC(=O)NCCOCCN4CC[C@H](NS(=O)(=O)c5ccc(O[C@H]6c7cc(Cl)cc(C#N)c7C[C@@H]6N6CCCN(C)CC6)cc5)C4)C3)cc2)CC1
2. Cc1cc(S(=O)(=O)N[C@H]2CCN(CCOCCNC(=O)NCCCCNC(=O)NCCOCCN3CC[C@H](NS(=O)(=O)c4ccc(O[C@H]5c6cc(Cl)cc(Cl)c6C[C@@H]5N(C)C)c(C)c4)C3=O)C2=O)ccc1O[C@H]1c2cc(Cl)cc(Cl)c2C[C@@H]1N(C)C
3. CN(C)[C@H]1Cc2c(cc(Cl)cc2C(F)(F)F)[C@@H]1Oc1ccc(S(=O)(=O)NCCOCCOCCNC(=O)NCCCCNC(=O)NCCOCCOCCNS(=O)(=O)c2ccc(O[C@H]3c4cc(Cl)cc(C(F)(F)F)c4C[C@@H]3N(C)C)cc2)cc1

Completion:
["A (NHE3 < 40%)", "C (>70%)", "A (NHE3 < 40%)"]
